Listed here: items and their measured responders at 50 mg/kg.
Test system: conscious mice
Test: Normobaric hypoxia test (96% nitrogen / 4% oxygen) in conscious mice
Format: in vivo
Settings: Mus musculus, ip, 50 mg/kg i.p., protected = survival twice as long as control group, read-out: Protection
Measurement Label: responders at 50 mg/kg (%)

Compound	Measurement Label	Recorded Measurement
COC(=O)C1N(CCC(=O)c2ccc(F)cc2)CSC1(C)C (stereo not shown)	responders at 50 mg/kg	60
O=C(CCN1CCSC1)c1ccc(Cl)s1	responders at 50 mg/kg	40
COc1ccc(C(=O)CCN2CCSC2)c(C)c1	responders at 50 mg/kg	40
CCc1ccc(C(=O)CCN2CCSC2)s1	responders at 50 mg/kg	30
CSc1ccc(C(=O)CCN2CCSC2)cc1	responders at 50 mg/kg	70
CC(CN1CCSC1)C(=O)c1ccccc1 (stereo not shown)	responders at 50 mg/kg	30
O=C(CCN1CCCSC1)c1ccc(-c2ccccc2)cc1	responders at 50 mg/kg	30

* * *

Experiment: Toxicity (LD50) on mice
Settings: mouse, in vivo, oral, read-out: LD50 orally

Molecule	Units Text	LD50
O=C(CCN1CCSC1)c1ccc(F)cc1 [Example 35a]	mg/kg	646

* * *

Listed here: items and their measured responders at 50 mg/kg.
Test system: conscious mice
Assay: Normobaric hypoxia test (96% nitrogen / 4% oxygen) in conscious mice
Format: in vivo
Details: Mus musculus, ip, 50 mg/kg i.p., protected = survival twice as long as control group, read-out: Protection
Measurement Label: responders at 50 mg/kg (%)

Compound	Measurement Label	Units Text	Recorded Measurement
COc1ccc(C(=O)CCN2CCSC2)cc1 [Example 8]	responders at 50 mg/kg	%	20
CC(CN1CCSC1)C(=O)c1ccc(F)cc1 (centres unmarked) [Example 27]	responders at 50 mg/kg	%	20
O=C(CCN1CCSC1)c1cccc([N+](=O)[O-])c1 [Example 20]	responders at 50 mg/kg	%	20
CC(CN1CCSC1)C(=O)c1cccs1 (centres unmarked) [Example 41]	responders at 50 mg/kg	%	20
O=C(CCN1CCSC1)c1ccc(F)cc1 [Example 35a]	responders at 50 mg/kg	%	60
O=C(CCN1CCSC1)c1ccc(Cl)c(Cl)c1 [Example 19]	responders at 50 mg/kg	%	20
O=C(CCN1CCSC1)c1cccs1 [Example 37]	responders at 50 mg/kg	%	60
O=C(CCN1CCSC1)c1ccccc1 [Example 1, 1-phenyl-3-(thiazolidinyl)propan-1-one]	responders at 50 mg/kg	%	30
CC(CN1CCSC1)C(=O)c1ccc(Br)cc1 (centres unmarked) [Example 30]	responders at 50 mg/kg	%	40
O=C(CCN1CCSC1)c1ccc(Br)cc1 [Example 18]	responders at 50 mg/kg	%	50
O=C(CCN1CCSC1)c1ccc(Cl)cc1 [Example 17]	responders at 50 mg/kg	%	60

* * *

Experiment: Toxicity (LD50) on mice
Details: mouse, in vivo, intravenous, read-out: LD50 intravenously
Method: The toxicity of the active compound of Example 35a according to the invention was determined on mice.

Compound	Units Text	LD50
O=C(CCN1CCSC1)c1ccc(F)cc1 [Example 35a]	mg/kg	108
